# test system: T1, monkey RANKL (cynomolgus monkey, R & D Systems) (cynomolgus monkey, UniProt A0A7N9DBU4 140-317)
# T1 construct: also called cynomolgus monkey RANKL
# T1 sequence: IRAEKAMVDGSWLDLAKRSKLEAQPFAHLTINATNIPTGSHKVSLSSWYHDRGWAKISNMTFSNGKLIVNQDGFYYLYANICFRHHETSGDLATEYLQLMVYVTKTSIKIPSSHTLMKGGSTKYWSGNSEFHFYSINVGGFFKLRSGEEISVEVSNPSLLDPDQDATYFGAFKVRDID
# test method notes: direct ELISA, monkey RANKL coated
parameter: EC50 (µg/mL)
State the answer as a number, implicitly in µg/mL.

• 114-7.37.26 (antibody, V domains shown, Murine monoclonal antibody from hybridoma) VH: QVQLQQSGAELASPGASVKLSCKTSGYTFTTYWLQWVKQRPGQGLEWIGAIYPGPGNTKYTQKFKDKATLTADKSASTAYMQLSSLTSEDSAVYYCARRGSRRGIAYWGQGTLVTVSA VL: NIVLTQSPASLAVSLGQRATISCRASESVDSYGRSFMHWYQQRPGQPPTLLIYLASNLESGVPARFSGSGSRTDFTLTIDPVEADDAATYYCQQDNEDPYTFGGGTKLEIK = 0.016
• 114-2.402 (antibody, V domains shown, Murine monoclonal antibody from hybridoma) VH: EVQLQQSGTELVKPGASVKLSCTLFGFNIKATYMHWVRQRPEQGLEWIGRIDPPNGNTKYDPKFQDKATIKVDTSSNTAYLQLSSLTSEDTAVYYCAREFNRYDVWLAYWGQGTLVTVSA VL: DIQMTQTTSSLSASLGDRVTISCSASQGVSNYLNWYQQKPDGTVKLLIYSTSSLHSGVPSRFSGSGSGTDYSLTISNLEPEDVATYYCQQYSKLPFTFGSGTKLEIKR = 0.0111
• 114-7.38.48 (antibody, V domains shown, Murine monoclonal antibody from hybridoma) VH: DVQLQESGPDLVKPSQSLSLTCTVTGYSITSAYSWHWIRQFPGNKLEWMGYIHFSGVTNYNPSLKSRISITRDASKNQFFLQLSSVTTEDTATYYCATRRETGFTYWGQGTLVTVSA VL: DIVLTQSPATLSVTPGDSVSLSCRASQSISKNLHWYQQKSHESPRLLIKYASQSISGIPSRFSGSGSGTDFTLSINSVETEDFGIYFCQQINSWPLTFGAGTKLELK = 0.0198

Now for the binder whose EC50 we want.
// recorded EC50 for 114-5.7.14 (antibody, V domains shown, Murine monoclonal antibody from hybridoma) VH: EVQLQQSGAELVKPGASVKLSCTASGFKIKDTYMHWVRQRPEQGLEWIGRIDSANGNIKYDPKFQGKATITADTSSKTAYLHLSSLTFEDTAVYYCSRPKSNYDFWLPYWGQGTLVTVSA VL: DIQMTQTTSSLSASLGDRVTISCSASQGISNYLNWYQQKPDGTVKLLIYYTSSLHSGVPSRFSGSGSGTDYSLTISNLEPEDIATYYCQQYSKLPLTFGAGTKLELK : 0.00686

Values compiled from patent EP3085709A1.
